// reported pKd per item
Biological target: T1, human IL-33 (R&D Systems, #3625-IL-010/CF) (human, UniProt O95760 112-270)
T1 construct: Commercial recombinant protein; also called hIL-33; interleukin-33
T1 sequence (looked up): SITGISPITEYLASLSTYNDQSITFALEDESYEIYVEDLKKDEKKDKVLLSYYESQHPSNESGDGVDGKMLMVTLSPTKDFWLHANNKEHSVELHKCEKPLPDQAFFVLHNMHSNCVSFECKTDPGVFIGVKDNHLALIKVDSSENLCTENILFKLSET
Test: SPR 37C pH7.4, mAb captured
Just the number, please; pKd means minus log10 of the concentration in mol/L.

For orientation, consider the following solved cases.
H4H9672P (antibody, human IgG4, V domains shown, Human IgG4 Fc (H4H)) VH: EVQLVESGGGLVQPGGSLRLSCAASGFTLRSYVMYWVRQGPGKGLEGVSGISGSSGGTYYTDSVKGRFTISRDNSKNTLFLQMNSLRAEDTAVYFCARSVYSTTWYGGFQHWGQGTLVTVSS VL: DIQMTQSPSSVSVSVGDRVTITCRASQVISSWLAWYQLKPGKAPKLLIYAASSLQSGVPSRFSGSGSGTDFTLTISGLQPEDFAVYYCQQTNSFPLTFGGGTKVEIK ... 8.98
H4H9675P (antibody, human IgG4, V domains shown, Human IgG4 Fc (H4H)) VH: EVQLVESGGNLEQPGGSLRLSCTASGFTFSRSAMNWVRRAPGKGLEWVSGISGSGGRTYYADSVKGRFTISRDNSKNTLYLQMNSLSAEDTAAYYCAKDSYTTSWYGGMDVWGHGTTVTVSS VL: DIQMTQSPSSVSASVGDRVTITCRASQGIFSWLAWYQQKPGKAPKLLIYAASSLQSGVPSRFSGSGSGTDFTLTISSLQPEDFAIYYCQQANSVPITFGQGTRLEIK ... 9.39
H4H9671P (antibody, human IgG4, V domains shown, Human IgG4 Fc (H4H)) VH: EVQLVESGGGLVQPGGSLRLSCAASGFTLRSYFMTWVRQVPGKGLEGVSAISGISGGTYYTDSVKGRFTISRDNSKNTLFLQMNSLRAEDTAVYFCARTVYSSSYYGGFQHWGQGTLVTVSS VL: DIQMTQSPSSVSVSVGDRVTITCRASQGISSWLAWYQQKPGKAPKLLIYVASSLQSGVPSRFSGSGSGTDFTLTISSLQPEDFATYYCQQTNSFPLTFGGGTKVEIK ... 9.03
H1M9559N (antibody, mouse IgG1, V domains shown, Human variable domains, mouse IgG1 Fc (H1M)) VH: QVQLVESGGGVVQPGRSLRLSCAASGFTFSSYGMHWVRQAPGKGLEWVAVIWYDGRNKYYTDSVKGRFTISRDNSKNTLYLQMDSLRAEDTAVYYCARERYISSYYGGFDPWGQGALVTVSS VL: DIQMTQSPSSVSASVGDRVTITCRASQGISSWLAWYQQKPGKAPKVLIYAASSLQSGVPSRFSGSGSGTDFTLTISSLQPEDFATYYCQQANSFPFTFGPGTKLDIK ... 8.69

Form field: reported pKd of H4H9663P (antibody, human IgG4, V domains shown, Human IgG4 Fc (H4H)) VH: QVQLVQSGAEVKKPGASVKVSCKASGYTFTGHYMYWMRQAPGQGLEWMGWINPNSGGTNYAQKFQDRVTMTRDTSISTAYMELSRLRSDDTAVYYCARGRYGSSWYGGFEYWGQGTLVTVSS VL: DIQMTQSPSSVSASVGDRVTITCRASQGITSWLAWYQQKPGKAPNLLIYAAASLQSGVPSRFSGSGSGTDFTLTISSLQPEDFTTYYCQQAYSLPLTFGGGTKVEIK
9.17
